Molecular target: DPP-IV (Homo sapiens)
Sequence (P27487 whole entry): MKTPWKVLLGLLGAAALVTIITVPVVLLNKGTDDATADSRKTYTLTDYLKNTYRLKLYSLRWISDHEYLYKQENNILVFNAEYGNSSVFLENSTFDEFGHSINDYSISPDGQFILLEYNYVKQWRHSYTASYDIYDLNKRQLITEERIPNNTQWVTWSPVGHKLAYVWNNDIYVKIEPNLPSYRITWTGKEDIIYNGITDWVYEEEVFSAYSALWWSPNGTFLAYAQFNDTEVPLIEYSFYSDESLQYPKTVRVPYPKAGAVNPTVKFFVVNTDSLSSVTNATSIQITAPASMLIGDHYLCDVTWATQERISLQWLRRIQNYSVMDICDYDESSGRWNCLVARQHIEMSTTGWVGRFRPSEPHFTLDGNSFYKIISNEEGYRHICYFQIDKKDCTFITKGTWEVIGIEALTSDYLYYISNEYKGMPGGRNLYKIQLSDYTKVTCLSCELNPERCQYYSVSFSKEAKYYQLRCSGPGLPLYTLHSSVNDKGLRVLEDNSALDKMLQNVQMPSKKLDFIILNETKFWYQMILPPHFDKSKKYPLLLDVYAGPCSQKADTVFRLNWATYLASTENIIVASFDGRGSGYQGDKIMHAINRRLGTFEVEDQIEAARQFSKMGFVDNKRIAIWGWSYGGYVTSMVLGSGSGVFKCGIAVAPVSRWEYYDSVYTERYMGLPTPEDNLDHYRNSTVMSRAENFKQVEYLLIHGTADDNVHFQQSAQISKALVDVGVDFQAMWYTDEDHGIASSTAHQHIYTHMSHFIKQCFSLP
pIC50: −log10 of the molar value.
quantity_measured: pIC50

Below, 2 compounds whose answers are already recorded.
C[C@@]1(NCC(=O)N2C[C@@H](F)C[C@H]2C#N)C[C@H]2C[C@@H](OC3CC3)C[C@H]2C1 | 8.03
C[C@@]1(NCC(=O)N2C[C@@H](F)C[C@H]2C#N)C[C@H]2C[C@H](O)C[C@H]2C1 | 8.40

(I) CO[C@@H]1C[C@@H]2C[C@@](C)(NCC(=O)N3C[C@@H](F)C[C@H]3C#N)C[C@@H]2C1
(II) C[C@@]1(NCC(=O)N2CCC[C@H]2C#N)C[C@H]2C[C@@H](OC3CC3)C[C@H]2C1
Just curious, which one has the larger pIC50 reading, I or II ? Use the label to indicate which entry you chose. I
(I: 8.39, II: 8.03)
